Origin of measurements: ChEMBL document CHEMBL4396893

- System name: Induced myeloid leukemia cell differentiation protein Mcl-1 (Homo sapiens, UniProt Q07820)
- Sequence (Q07820 whole entry): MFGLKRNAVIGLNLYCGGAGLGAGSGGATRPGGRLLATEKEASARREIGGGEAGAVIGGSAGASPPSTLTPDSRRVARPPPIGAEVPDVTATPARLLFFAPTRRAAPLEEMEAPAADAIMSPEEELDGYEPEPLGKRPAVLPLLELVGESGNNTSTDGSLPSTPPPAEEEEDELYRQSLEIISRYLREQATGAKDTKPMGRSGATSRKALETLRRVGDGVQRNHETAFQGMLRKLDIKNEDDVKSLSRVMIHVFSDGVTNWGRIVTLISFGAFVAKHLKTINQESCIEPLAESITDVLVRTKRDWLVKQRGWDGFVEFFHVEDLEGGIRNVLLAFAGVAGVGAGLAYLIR
- Procedure text: Inhibition of Flu-BakBH3 peptide binding to GST-tagged MCl-1 (unknown origin) after 2 mins by fluorescence polarization assay
Property measured: Ki (nM)

given_smiles=Cc1cc2c(C(=O)Cc3ccccc3)c(O)c(O)cc2c(O)c1-c1c(C)cc2c(C(=O)Cc3ccccc3)c(O)c(O)cc2c1O property_measured=Ki unit_name=nM obs_value=520

###

- System name: UniProt Q07817
- Sequence (Q07817 whole entry): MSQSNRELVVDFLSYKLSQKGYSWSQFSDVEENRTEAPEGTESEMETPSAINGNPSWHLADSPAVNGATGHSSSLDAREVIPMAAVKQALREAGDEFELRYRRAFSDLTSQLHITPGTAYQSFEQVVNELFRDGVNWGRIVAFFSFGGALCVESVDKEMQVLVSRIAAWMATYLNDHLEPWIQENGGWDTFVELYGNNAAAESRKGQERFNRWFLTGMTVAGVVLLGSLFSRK
- Procedure text: Inhibition of Flu-BakBH3 peptide binding to recombinant human Bcl-xL after 15 mins by fluorescence polarization assay
Property measured: Ki (nM)

given_smiles=CC1=C(C2=C(C)C(=O)c3c(cc(O)c(O)c3C(C)C)C2=O)C(=O)c2cc(O)c(O)c(C(C)C)c2C1=O unit_name=nM obs_value=660
